Target: JAK2 (Homo sapiens (Human), UniProt O60674)
Sequence (O60674 849-1124): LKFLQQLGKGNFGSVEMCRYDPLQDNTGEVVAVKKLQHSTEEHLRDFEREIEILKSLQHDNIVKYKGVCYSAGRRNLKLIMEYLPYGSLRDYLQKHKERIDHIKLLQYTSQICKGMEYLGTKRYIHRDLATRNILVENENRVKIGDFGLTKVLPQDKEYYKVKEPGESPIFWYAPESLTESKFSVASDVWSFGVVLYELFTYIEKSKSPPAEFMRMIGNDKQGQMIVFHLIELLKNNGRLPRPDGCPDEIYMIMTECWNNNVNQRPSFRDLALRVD
Experiment: Jak Biochemical HTRF Assay, JAK2
Details: HTRF biochemical assay, GST-tagged catalytic domain; top concentration tested […]
Source text: Jak Biochemical HTRF Assay Protocol Subsequent reagent additions employed an Agilent Bravo.
pIC50: −log10 of the molar value.
We use 8 as the dividing line for pIC50: on or above the line is 1 (yes), below is 0 (no).

Examples with answers:
Check the entry N#CCC1(n2cc(C(N)=O)c(Nc3ccccc3)n2)CCN(C(=O)CN2CCCC2=O)CC1 [Example 34-15] : does pIC50 equal or exceed 8?
0 (no)

Check the entry CC(C)(C)OC(=O)N1CCC(CC#N)(n2cc(C(N)=O)c(Nc3ccc(C(C)(C)O)nc3)n2)CC1 [Example 9-6] : does pIC50 equal or exceed 8?
1 (yes)

Check the entry CN1CCC(COC(=O)N2CC(CC#N)(n3cc(C(N)=O)c(Nc4ccccc4)n3)C2)CC1 [Example 30-73] : does pIC50 equal or exceed 8?
0 (no)

Check the entry CC(C)(C)OC(=O)N1CCC(CC#N)(n2cc(C(N)=O)c(Nc3cccnn3)n2)CC1 [Example 13-6] : does pIC50 equal or exceed 8?
0 (no)

Check the entry N#CCC1(n2cc(C(N)=O)c(Nc3cncc(F)c3)n2)CCN(C(=O)OCC(F)(F)F)CC1 [Example 10-8] : does pIC50 equal or exceed 8?
0 (no)

Next:
Check the entry CCOc1ccccc1NC(=O)N1CC(CC#N)(n2cc(C(N)=O)c(Nc3ccccc3)n2)C1 [Example 38-30] : does pIC50 equal or exceed 8?
0 (no)

Check the entry N#CCC1(n2cc(C(N)=O)c(Nc3ccccc3)n2)CN(C(=O)Nc2ccc(C#N)cc2)C1 [Example 38-15] : does pIC50 equal or exceed 8?
0 (no)

These measurements were taken from patent US9328099B2.
